System: A. baumannii NCTC 13423
Assay: Antibacterial activity, pre-exposure
Type: cell-based, Acinetobacter baumannii
Conditions: A. baumannii NCTC 13423, pre-exposure, 25 µM, ± SD
Parameter: Average inhibition %, planktonic cells viability (%)

Compound	Measured Number
CCCCCCCCOc1ccc(CCC(N)(CO)CO)cc1 [Compound 48]	48.6
CCCCCCCCCCOc1ccc(CCC(N)(CO)CO)cc1 [Compound 49]	2.6
CCCCCCCCc1ccc(CC(N)(CO)CO)cc1 [Compound 44]	83.5
CCCCCCCCCCc1ccc2nc(CC(N)(CO)CO)ccc2c1 [Compound 83]	3.1
CCCCCCCCc1cccc(CCC(N)(CO)CO)c1 [Compound 43]	99.8
CCCCCC/C=C/c1ccc(CCC(N)(CO)CO)cc1 [Compound 42]	33.1

----------
Recorded inhibition at 50 µM by entry
Tested on: A. baumannii NCTC 13423
Assay: Antibacterial activity, pre-exposure
Format: cell-based, Acinetobacter baumannii
Conditions: Acinetobacter baumannii, NCTC13423; A. baumannii NCTC 13423, pre-exposure, 50 µM, ± SD; read-out: Average inhibition %, planktonic cells turbidity

Compound	inhibition at 50 µM, %
CCCCCCCCCCc1ccc2nc(CCC(N)(CO)CO)ccc2c1	0.5
CCCCCCCCCCc1ccc2nc(CC(N)(CO)CO)ccc2c1	88.3
CCCCCCCCc1ccc2ccc(CC(N)(CO)CO)nc2c1	99.4
CCCCCCCCCCOc1ccc(CCC(N)(CO)CO)cc1	1.2
CCCCCCCCCCc1ccc(CCC(N)(CO)CO)cc1	0
CCCCCCCCc1ccc2nc(CCC(N)(CO)CO)ccc2c1	98.8
CCCCCCCCc1ccc(C(O)CC(N)(CO)CO)cc1 (stereo not shown)	99
CCCCCCCCc1ccc(CCC(N)(CO)CO)cc1	98.5
CCCCCc1ccc(-c2ccc(CCC(N)(CO)CO)cc2)cc1	0
CCCCCCCCCCc1ccc(CCC(N)(CO)CO)nc1	98.8

----------
System: S. aureus P2
Assay: Antibacterial activity, pre-exposure
Assay type: cell-based, Staphylococcus aureus
Details: Staphylococcus aureus; S. aureus P2, pre-exposure, 5 µM, ± SD; read-out: Average inhibition %, planktonic cells turbidity
Label true when inhibition at 5 µM is at or above 3%; otherwise label false.

Compound	Test System	Qualitative Label
CCCCCCCCCCc1ccc(C(O)CC(N)(CO)CO)cc1 (stereo not drawn)	S. aureus P2	true
CCCCCCCCc1ccc2ccc(CC(N)(CO)CO)nc2c1	S. aureus P2	true
CCCCCCCCc1ccc2cc(CC(N)(CO)CO)ccc2c1	S. aureus P2	true
CCCCCCCCc1ccc(CCC(N)(CO)CO)cc1	S. aureus P2	true
CCCCCCCCCCc1ccc2nc(CCC(N)(CO)CO)ccc2c1	S. aureus P2	false
CCCCCCCCc1ccc2nc(CCC(N)(CO)CO)ccc2c1	S. aureus P2	true

----------
System: S. aureus ATCC 25923
Assay: Antibacterial activity, post-exposure on preformed 18-h-old biofilms
Assay type: cell-based, Staphylococcus aureus
Settings: Staphylococcus aureus, ATCC25923, 25 µM, ± SD, read-out: Average inhibition %, planktonic cells turbidity
Parameter: inhibition at 25 µM (%)

CCCCCCCCc1cccc(CCC(N)(CO)CO)c1 6.1
CCCCCCCCc1ccc(CCC(N)(CO)CO)cc1 1.1
CCCCCC/C=C/c1ccc(CCC(N)(CO)CO)cc1 12
CCCCCCCCCCc1ccc(CCC(N)(CO)CO)cc1 8.9
CCCCCc1ccc(-c2ccc(CCC(N)(CO)CO)cc2)cc1 16.8
CCCCCCCCc1ccc(CC(N)(CO)CO)cc1 6.1
CCCCCCCCCCc1ccc2nc(CC(N)(CO)CO)ccc2c1 27.1
CCCCCCCCc1ccc2nc(CCC(N)(CO)CO)ccc2c1 31.7
CCCCCCCCCCc1ccc2nc(CCC(N)(CO)CO)ccc2c1 22.7
CCCCCCCCc1ccc2cc(CC(N)(CO)CO)ccc2c1 16.1

----------
System: S. aureus P2
Assay: Antibacterial activity, pre-exposure
Type: cell-based, Staphylococcus aureus
Settings: Staphylococcus aureus; S. aureus P2, pre-exposure, 15 µM, ± SD; read-out: Average inhibition %, biofilms biomass

Molecule	inhibition at 15 µM (%)
CCCCCCCCCCc1ccc(C(O)CC(N)(CO)CO)cc1 (stereo not drawn)	95.1
CCCCCCCCCCc1ccc2nc(CCC(N)(CO)CO)ccc2c1	94.5
CCCCCCCCc1ccc2cc(CC(N)(CO)CO)ccc2c1	97.3
CCCCCCCCc1ccc(CCC(N)(CO)CO)cc1	98.3
CCCCCCCCc1ccc2ccc(CC(N)(CO)CO)nc2c1	97.2
CCCCCCCCc1ccc2nc(CCC(N)(CO)CO)ccc2c1	95.3

----------
Test system: S. aureus ATCC 25923
Assay: Antibacterial activity, pre-exposure (planktonic cells and biofilm formation)
Type: cell-based, Staphylococcus aureus
Conditions: pre-exposure, 5 µM, ± SD
Define the label as rule met when Average inhibition %, planktonic cells viability is strictly less than 6% and as rule not met in all remaining cases.

Molecule	Qualitative Label
CCCCCCCCCCc1ccc2nc(CC(N)(CO)CO)ccc2c1	rule not met
CCCCCCCCCCc1ccc(CCC(N)(CO)CO)cc1	rule not met
CCCCCCCCc1ccc(CC(N)(CO)CO)cc1	rule met
CCCCCC/C=C/c1ccc(CCC(N)(CO)CO)cc1	rule met
CCCCCCCCCCc1ccc2nc(CCC(N)(CO)CO)ccc2c1	rule not met
CCCCCCCCCCc1ccc(CCC(N)(CO)CO)nc1	rule met
CCCCCCCCc1ccc2cc(CC(N)(CO)CO)ccc2c1	rule not met
CCCCCCCCc1ccc(C(O)CC(N)(CO)CO)cc1 (stereo not shown)	rule not met
CCCCCCCCc1cccc(CCC(N)(CO)CO)c1	rule not met
CCCCCCCCOc1ccc(CCC(N)(CO)CO)cc1	rule met
CCCCCCCCCCc1ccc(C(O)CC(N)(CO)CO)cc1 (stereo not shown)	rule not met
CCCCCCCCc1ccc(CCC(N)(CO)CO)cc1	rule not met
CCCCCCCCc1ccc2nc(CCC(N)(CO)CO)ccc2c1	rule not met
CCCCCc1ccc(-c2ccc(CCC(N)(CO)CO)cc2)cc1	rule met
CCCCCCCCCCOc1ccc(CCC(N)(CO)CO)cc1	rule met

----------
Tested on: S. aureus ATCC 12598
Test: Antibacterial activity, pre-exposure
Format: cell-based, Staphylococcus aureus
Conditions: Staphylococcus aureus, ATCC12598; pre-exposure, 18 h; read-out: MIC S. aureus ATCC 12598
Description: The antimicrobial activity was assessed in a similar way for the initial screening and the dose–response evaluation against different bacterial strains. […] The resazurin staining was performed according to the protocol previously optimized with a few modifications.[46] Briefly, the planktonic solution was first transferred into a new 96-well plate and the OD of the planktonic solution was measured using a Varioskan LUX Multimode microplate reader (Thermo Scientific, Vantaa, Finland). […]
Parameter: MIC

Molecule	Parameter	Result
CCCCCCCCc1ccc2nc(CCC(N)(CO)CO)ccc2c1	MIC	10 µM
CCCCCCCCc1ccc(CCC(N)(CO)CO)cc1	MIC	15 µM
CCCCCCCCCCc1ccc2nc(CC(N)(CO)CO)ccc2c1	MIC	10 µM
CCCCCCCCc1ccc2cc(CC(N)(CO)CO)ccc2c1	MIC	5 to 10 µM
CCCCCCCCc1ccc2ccc(CC(N)(CO)CO)nc2c1	MIC	10 µM
CCCCCCCCCCc1ccc(C(O)CC(N)(CO)CO)cc1 (stereo not drawn)	MIC	10 µM

----------
System: A. baumannii NCTC 13423
Assay: Antibacterial activity, pre-exposure
Type: cell-based, Acinetobacter baumannii
Conditions: Acinetobacter baumannii, NCTC13423; supplementary molecular formula strings sheet; read-out: MIC (A. baumannii)

Molecule	MIC
CCCCCCCCCCc1ccc2nc(CC(N)(CO)CO)ccc2c1	> 50 µM
CCCCCCCCc1ccc(CC(N)(CO)CO)cc1	25 to 50 µM
CCCCCCCCc1ccc(C(O)CC(N)(CO)CO)cc1 (stereo not shown)	50 µM
CCCCCCCCCCc1ccc(C(O)CC(N)(CO)CO)cc1 (stereo not shown)	15 µM
CCCCCCCCc1ccc2ccc(CC(N)(CO)CO)nc2c1	15 µM
CCCCCCCCc1cccc(CCC(N)(CO)CO)c1	15 µM
CCCCCCCCc1ccc2nc(CCC(N)(CO)CO)ccc2c1	15 to 25 µM
CCCCCCCCCCc1ccc(CCC(N)(CO)CO)nc1	15 µM
CCCCCCCCOc1ccc(CCC(N)(CO)CO)cc1	> 50 µM
CCCCCC/C=C/c1ccc(CCC(N)(CO)CO)cc1	> 50 µM

----------
Tested on: S. aureus ATCC 12598
Test: Antibacterial activity, pre-exposure
Type: cell-based, Staphylococcus aureus
Settings: S. aureus ATCC 12598, pre-exposure, 15 µM, ± SD
Parameter: Average inhibition %, planktonic cells viability

Molecule	Test System	Result
CCCCCCCCc1ccc(CCC(N)(CO)CO)cc1 [fingolimod, Fingolimod]	S. aureus ATCC 12598	99.7 ± 0%
CCCCCCCCCCc1ccc(C(O)CC(N)(CO)CO)cc1 (stereo not drawn) [Compound 55]	S. aureus ATCC 12598	99.7 ± 0%
CCCCCCCCc1ccc2ccc(CC(N)(CO)CO)nc2c1 [Compound 82]	S. aureus ATCC 12598	99.7 ± 0%
CCCCCCCCCCc1ccc2nc(CCC(N)(CO)CO)ccc2c1 [Compound 81]	S. aureus ATCC 12598	99.8 ± 0.1%
CCCCCCCCc1ccc2cc(CC(N)(CO)CO)ccc2c1 [Compound 79]	S. aureus ATCC 12598	99.6 ± 0.1%
CCCCCCCCc1ccc2nc(CCC(N)(CO)CO)ccc2c1 [Compound 80]	S. aureus ATCC 12598	99.6 ± 0%
